- protocol text: chemical genetic growth profiling, strain panel (AID 1159580);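 note: tested at 20 µM; growth read once vehicle control cultures reached saturation at 30 °C; 1 = growth at the plate median or of vehicle wells; lower values mean less growth of the strain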
- measurement parameters: S. cerevisiae deletion strains, growth OD, locus YBL061C, strain skt5
Out of some 5,500 compounds screened, about 2,000 (36%) were called active. About 18% were inconclusive and are not listed. Cut-off read from the data, not from the text of the source: active = normalized growth mostly below about 0.91 (no sharp cut-off); inconclusive = no clear call, values can overlap the other calls; inactive = mostly above about 0.92. This is one part of the list.
Pick one and only one: 1 = active, -1 = inactive

GET /call?item= C[C@]12CCC(=O)C=C1CCC1C2[C@@H](O)C[C@@]2(C)C1CC[C@]2(O)C(=O)CO (stereo not given in full) returns the recorded outcome of this test.
-1

How did this test come out for "O=C1C(O)=C(O)C(=O)C(O)=C1O" ?
-1

Could you check what this test reported for CC1OC(=O)C(C(C)C)NC(=O)C(C(C)C)OC(=O)C(C(C)C)NC(=O)C(C)OC(=O)C(C(C)C)NC(=O)C(C(C)C)OC(=O)C(C(C)C)NC(=O)C(C)OC(=O)C(C(C)C)NC(=O)C(C(C)C)OC(=O)C(C(C)C)NC1=O (stereo not given) ?
1

What was the test verdict on "COC(=O)Nc1nc2ccc(C(=O)c3ccccc3)cc2[nH]1" ?
1

Per the records of this test, what outcome belongs to "Cc1cc(O)cc(O)c1C(=O)O" ?
-1

Recorded test call requested for "NNC(=O)c1ccncc1"
-1

Per the records of this test, what outcome belongs to "CCCCCCCCCCCC[C@H](C(=O)O)[C@@H](C)C(=O)O" ?
-1

Per the records of this test, what outcome belongs to "Nc1ccc(S(=O)(=O)Nc2ccnn2-c2ccccc2)cc1" ?
-1

Test call for this compound, please: "Cc1ccc(-c2cc(C(F)(F)F)nn2-c2ccc(S(N)(=O)=O)cc2)cc1"
-1

Please indicate how the test categorized "Cc1cc(O)cc(C)c1Cl" .
1

Which outcome was assigned to CC(CC(=O)C1OC1(C)C)C1C(=O)CC2(C)C3=CCC4C(C)(C)C(OC5OCC(O)C(O)C5O)CCC45CC35C(O)CC12C (stereo not given) in this test?
-1

Per the assay record, what outcome was assigned to "O=C(O)CC(O)(CC(=O)O)C(=O)O" ?
-1

What did this assay record as the result for C#C[C@]1(OC(C)=O)CCC2C3CCC4=C/C(=N\O)CCC4C3CC[C@@]21CC (stereo not given in full) ?
1

Assay outcome for CC1(C)CCC2(C(=O)O)CCC3(C)C(=CCC4C5(C)CCC(O)C(C)(C)C5C(O)CC43C)C2C1 (stereo not given) : what was it?
-1

GET /call?item= C#C[C@]1(OC(C)=O)CCC2C3CCC4=CC(=O)CC[C@@H]4C3CC[C@@]21C (stereo not given in full) returns the recorded outcome of this test.
-1

How did this test come out for "CC(C)(Oc1ccc(CCNC(=O)c2ccc(Cl)cc2)cc1)C(=O)O" ?
-1

Check the results log: what was the call for "Cc1cc(-n2c(=O)[nH]c(=O)n(C)c2=O)ccc1Oc1ccc(SC(F)(F)F)cc1" ?
1

Could you please tell me the result logged for C#C[C@]1(O)CCC2C3CCC4=CC(=O)CC[C@@H]4C3CC[C@@]21C (stereo not given in full) in this assay?
-1

What did the test return for "CC(C)(Sc1cc(C(C)(C)C)c(O)c(C(C)(C)C)c1)Sc1cc(C(C)(C)C)c(O)c(C(C)(C)C)c1" ?
-1

What did the test return for "CC(C)(C#N)O[C@@H]1O[C@H](CO)[C@@H](O)[C@H](O)[C@H]1O" ?
-1
